All figures here come from the supplement of paper PMC11417369.

Tested on: PfAP2-I AP2 domain 3 (GST-tagged)
assayMethodText: gcPBM binding intensity (ln(normalized median fluorescence intensity)); higher = stronger DNA binding
Over roughly 25,000 sequences, “ln(normalized median fluorescence intensity)” has its median near 7.9; the highest 2% begin near 11. For the sample, the highest values were picked, then their nearest neighbours and some sequences at random.
Use 9 as the dividing line for gcPBM binding intensity (ln), with the line itself on the fulfilled side and lower values as not fulfilled.

Check the entry ATATATATTTCTTAAAGTACATAATAATAAAAATAT [XGTACX_site8981] : does gcPBM binding intensity (ln) equal or exceed 9? not fulfilled

How about this sequence: ATAATAAATACACTAGTGCAAAATAATATATGTACT [GTGCAC_site9707] fulfilled

Consider next the sequence TATTTGTATAAATAAAAATAATATATATCAAATAAC [CACACA_negctrl_site218] in the same way. not fulfilled

# repeat for TGTATGTATAATTGAGTGCACAGAAAAAAAAAAGAA fulfilled

Continue with ACACATACATACATATGTACATATATACATATATAC [XGTACX_site5559] not fulfilled

Then GTATATAATATTAGTGCACACACAAAAATGTACTAA [CACACA_site8112] ? fulfilled

Please answer likewise for GTTAAAATTTGTCAATGTACAGAAATAATAAAAAAA [XGTACX_site1879] not fulfilled
